The measurements presented in this section are drawn from ChEMBL document CHEMBL4513216.

- System: Plasmodium falciparum
- experimentalProtocol: Screen against P. falciparum Asexual Blood Stage (ABS), at 5uM
- Format: functional, Dd2
- cond: tested at 5 uM
The whole screen tested about 65,000 compounds, of which about 2,100 (3.2%) showed an effect of 50% or more. The median lay at about -52%. This excerpt belongs to a sample that is enriched for strong results.
INHIBITION: recorded values
Kindly report the value followed by its unit.

Solved cases below.
* Cc1ccc(CN2CCc3onc(C(=O)NCCN(C)C)c3C2)o1 | -43.9%
* O[C@@H]1CC(CNCC2CC2)(COc2cccnc2)C[C@@H]1O (stereo partly specified) | -24.8%
* CC(C)NCC1(COc2ccccc2)C[C@@H](O)[C@@H](O)C1 (stereo partly specified) | 60.4%
* CC(C)(O)CCc1ccc(C(=O)N2Cc3cnn(CCO)c3C2)cc1 | -86.5%
* c1cc(CN2CCCC2)cc(-n2ccnc2-c2ccncc2)c1 | 6.67%
* Cc1cnn(CC2CCCN2C(=O)Cc2cccs2)c1 (stereo unspecified) | -35.5%
* CCN1CCO[C@@H]2CN(C(=O)c3ccc4[nH]ccc4c3)CC[C@@H]2C1 | -49.2%
* CC(C)NC(=O)NCC1(COc2cnccn2)C[C@@H](O)[C@@H](O)C1 (stereo partly specified) | -54.9%
* O=C(c1cccs1)N1C[C@H]2CCC[C@@]2(COCC2CCOCC2)C1 | -18.1%
* CNS(=O)(=O)c1cc(C)c2[nH]c(=O)cc(C)c2c1 | -73.5%

Input: If you can, please state the reported INHIBITION value of CCCc1nccn1-c1cccc(CN2CCCC2)c1 .
Output: 53.1%

---

- System: Plasmodium falciparum
- experimentalProtocol: Screen against P. falciparum Asexual Blood Stage (ABS), at 5uM
- Format: functional, Dd2
- cond: tested at 5 uM
Screen size: about 65,000 compounds; about 2,100 (3.2%) showed an effect of 50% or more. The median lay at about -52%. Shown is part of a subset that was picked to be rich in strong results.
We'd kindly ask you to apply these INHIBITION classes: bin 0 = under -40%, bin 1 = from -40% up to 20%, bin 2 = 20% and over

* O=C(O)c1ccccc1-c1ccc(CNC(=O)C2CCOCC2)cc1 | bin 0
* CN1CC(c2ccccc2)CC2(CCN(CC(=O)N(C)C)CC2)C1 (centres undefined) | bin 2
* Cc1nn(C)cc1S(=O)(=O)NCC(c1ccccc1)N1CCCCCC1 (centres undefined) | bin 1
* CCCn1ncc(-c2ccnc(NC3CCSC3)n2)c1C (centres undefined) | bin 1
* CC(C)C(C(=O)N1CCCN(c2nccs2)CC1)n1cncn1 (centres undefined) | bin 0

Input: Given COc1ncccc1CNC(=O)c1ccco1 , name the class its INHIBITION places it in.
Output: bin 1

Input: Given CC(C)(C)OC(=O)NC1CCCN(Cc2cccc(O)c2)C1 (centres undefined) , name the class its INHIBITION places it in.
Output: bin 2

Input: Given Cc1nc2ccccc2nc1CN1CCCC(Cn2cncn2)C1 (centres undefined) , name the class its INHIBITION places it in.
Output: bin 0

Input: Given Cc1nc2ccccc2nc1CN1CCCC1Cn1cccn1 (centres undefined) , name the class its INHIBITION places it in.
Output: bin 2

Input: Given CC(c1nc(-c2ccccc2)no1)N1CCc2c(ncn2C2CC2)C1 (centres undefined) , name the class its INHIBITION places it in.
Output: bin 1
